Molecular target: GABA transporter 4 (Mus musculus, UniProt P31650)
Sequence (P31650 whole entry): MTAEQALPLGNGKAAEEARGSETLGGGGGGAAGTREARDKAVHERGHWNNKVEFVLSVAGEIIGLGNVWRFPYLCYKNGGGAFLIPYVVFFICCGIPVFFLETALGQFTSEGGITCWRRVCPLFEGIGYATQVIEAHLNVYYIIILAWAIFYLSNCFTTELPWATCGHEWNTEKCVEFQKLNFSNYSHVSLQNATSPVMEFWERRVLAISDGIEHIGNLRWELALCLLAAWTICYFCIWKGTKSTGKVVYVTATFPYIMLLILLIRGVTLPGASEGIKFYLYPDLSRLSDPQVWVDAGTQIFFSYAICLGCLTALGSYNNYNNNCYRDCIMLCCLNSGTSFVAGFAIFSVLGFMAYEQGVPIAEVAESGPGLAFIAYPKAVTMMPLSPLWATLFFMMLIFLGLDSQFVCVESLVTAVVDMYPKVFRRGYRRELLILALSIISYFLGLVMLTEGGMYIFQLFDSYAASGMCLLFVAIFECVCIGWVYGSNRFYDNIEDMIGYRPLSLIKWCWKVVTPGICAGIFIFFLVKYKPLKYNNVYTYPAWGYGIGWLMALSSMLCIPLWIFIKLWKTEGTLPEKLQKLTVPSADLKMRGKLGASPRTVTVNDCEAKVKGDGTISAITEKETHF
Experiment: Inhibition of mouse GAT4 transfected in HEK293 cells assessed as reduction in [3H]-GABA uptake
Format: cell-based
Recorded pIC50 by entry
Field pIC50 (float): negative decimal logarithm of the concentration in molar.

[[record]]
smiles = "O=C(O)C1=CN(CC/C=C/c2ccccc2-c2ccccc2)CCC1"
assay_system = "GABA transporter 4 (Mus musculus, UniProt P31650)"
endpoint_value = 3.54


Please turn your attention to the following entry.
Task item: Form entry - test system: GABA transporter 4 (Mus musculus, UniProt P31650); read-out: pIC50; compound: `O=C(O)C1=CN(CC/C=C/c2ccccc2-c2ccc(Cl)cc2Cl)CCC1`
Reply: 4.20

====

Molecular target: UniProt P31648
endpoint_name: pKi
Field pKi (float): negative decimal logarithm of the concentration in molar.

Use the examples below as a reference point.
[[record]]
compound = "CC(O)CC(C(=O)NCc1ccccc1)N(C)CC/C=C/c1ccccc1-c1ccccc1 (racemic; form 2)"
assay_system = "UniProt P31648"
endpoint_value = 4.61

[[record]]
compound = "CN(CCOCCn1c2ccccc2c2ccccc21)C(CCN)C(=O)NCc1ccccc1Cl (centres undefined)"
assay_system = "UniProt P31648"
endpoint_value = 4.03

[[record]]
compound = "CN(CCOCCN1c2ccccc2Sc2ccccc21)C(CCN)C(=O)NCc1ccc(F)cc1 (centres undefined)"
assay_system = "UniProt P31648"
endpoint_value = 4.11

[[record]]
compound = "CN(CCOCCN1c2ccccc2Sc2ccccc21)C(CCN)C(=O)NCc1ccc(Cl)cc1 (centres undefined)"
assay_system = "UniProt P31648"
endpoint_value = 4.34

[[record]]
compound = "CN(CC/C=C/c1ccccc1-c1ccc(Cl)cc1Cl)C(CCN)C(=O)NCc1ccccc1 (centres undefined)"
assay_system = "UniProt P31648"
endpoint_value = 4.55


Task item: Quick one: pKi of CN(CCOCCN1c2ccccc2Sc2ccccc21)C(CCN)C(=O)NCc1ccccc1Cl (centres undefined) ?
Reply: 4.24

Task item: Quick one: pKi of CN(CCOCCN1c2ccccc2Sc2ccccc21)C(CCN)C(=O)NCc1ccccc1 (centres undefined) ?
Reply: 4.17

Task item: Quick one: pKi of CN(CCC=C(c1ccccc1)c1ccccc1)C(=O)C1Cc2c([nH]c3ccccc23)CN1 (centres undefined) ?
Reply: 4.10

Task item: Quick one: pKi of Cc1ccc(CNC(=O)C(CCN)N(C)CCOCCN2c3ccccc3Sc3ccccc32)cc1 (centres undefined) ?
Reply: 4.39

====

Biological target: Cholinesterase (Equus caballus, UniProt P81908)
Sequence (P81908 whole entry): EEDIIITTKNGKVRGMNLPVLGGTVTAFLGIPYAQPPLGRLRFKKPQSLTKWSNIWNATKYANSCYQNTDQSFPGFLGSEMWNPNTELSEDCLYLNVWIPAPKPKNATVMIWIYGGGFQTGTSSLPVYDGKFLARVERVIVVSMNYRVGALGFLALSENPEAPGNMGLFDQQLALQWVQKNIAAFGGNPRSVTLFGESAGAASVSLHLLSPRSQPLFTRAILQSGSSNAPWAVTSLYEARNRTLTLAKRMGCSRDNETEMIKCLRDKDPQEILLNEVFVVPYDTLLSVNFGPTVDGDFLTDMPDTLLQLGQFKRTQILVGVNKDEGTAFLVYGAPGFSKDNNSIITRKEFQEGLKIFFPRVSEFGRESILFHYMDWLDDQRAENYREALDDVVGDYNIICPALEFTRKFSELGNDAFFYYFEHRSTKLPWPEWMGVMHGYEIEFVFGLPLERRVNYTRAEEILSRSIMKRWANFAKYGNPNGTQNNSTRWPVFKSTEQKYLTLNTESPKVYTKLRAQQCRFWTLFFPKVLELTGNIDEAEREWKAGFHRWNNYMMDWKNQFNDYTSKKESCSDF
Recorded pIC50 by entry
Field pIC50 (float): negative decimal logarithm of the concentration in molar.

[[record]]
molecule = "CN(CC/C=C/c1ccccc1-c1ccccc1)C(CO)C(=O)NCc1ccccc1 (stereo not given)"
endpoint_name = "pIC50"
endpoint_value = 6.17

[[record]]
molecule = "Cc1ccc(CNC(=O)C(CCN)N(C)CCOCCN2c3ccccc3Sc3ccccc32)cc1 (stereo not given)"
endpoint_name = "pIC50"
endpoint_value = 5.44

[[record]]
molecule = "CN(CCOCCn1c2ccccc2c2ccccc21)C(CCO)C(=O)NCc1ccc(F)cc1 (stereo not given)"
endpoint_name = "pIC50"
endpoint_value = 5.32

[[record]]
molecule = "CN(CCOCCN1c2ccccc2Sc2ccccc21)C(CCN)C(=O)NCc1ccc(Cl)cc1 (stereo not given)"
endpoint_name = "pIC50"
endpoint_value = 6.25


Please turn your attention to the following entry.
Task item: Form entry - test system: Cholinesterase (Equus caballus, UniProt P81908); read-out: pIC50; molecule: CN(CCOCCn1c2ccccc2c2ccccc21)C(CCN)C(=O)NCc1ccc(F)cc1 (stereo not given)
Reply: 6.46

====

Target: GABA transporter 4 (Mus musculus)
Experiment: Inhibition of mouse GAT4 transfected in HEK293 cells assessed as reduction in [3H]-GABA uptake preincubated for 25 mins followed by [3H]-GABA addition and measured after 4 mins by liquid scintillation counting analysis
Assay type: cell-based
Conditions: read-out: IC50
endpoint_name: pIC50
Field pIC50 (float): negative decimal logarithm of the concentration in molar.

Task item: Quick one: pIC50 of CN(CCC=C(c1ccccc1)c1ccccc1)C(=O)C1Cc2c([nH]c3ccccc23)CN1 (stereo unspecified) ?
Reply: 5.20

====

Target: Beta-secretase 1 (Homo sapiens)
Sequence (P56817 whole entry): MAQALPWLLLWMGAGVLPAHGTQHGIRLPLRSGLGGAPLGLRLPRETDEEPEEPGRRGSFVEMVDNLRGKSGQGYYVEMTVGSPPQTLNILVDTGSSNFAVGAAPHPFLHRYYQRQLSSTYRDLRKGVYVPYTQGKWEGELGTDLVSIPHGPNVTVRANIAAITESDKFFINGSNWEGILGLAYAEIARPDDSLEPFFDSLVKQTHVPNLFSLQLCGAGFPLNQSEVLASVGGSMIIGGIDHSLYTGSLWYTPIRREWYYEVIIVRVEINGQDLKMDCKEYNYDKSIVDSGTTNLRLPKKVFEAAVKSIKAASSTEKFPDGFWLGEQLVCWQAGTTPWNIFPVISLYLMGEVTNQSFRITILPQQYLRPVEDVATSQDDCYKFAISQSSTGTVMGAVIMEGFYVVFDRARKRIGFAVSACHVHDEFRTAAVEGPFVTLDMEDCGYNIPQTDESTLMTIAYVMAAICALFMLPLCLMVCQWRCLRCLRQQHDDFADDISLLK
Label key: T means IC50 under 9 µM; F means IC50 of 9 µM or more.

[[record]]
molecule = "CN(CCC=C1c2ccccc2CCc2ccccc21)C(CCN)C(=O)NCc1ccccc1 (stereo not drawn)"
category = "T"

[[record]]
molecule = "CN(CCC=C1c2ccccc2CCc2ccccc21)C(CCN)C(=O)NCc1ccc(Cl)cc1 (stereo not drawn)"
category = "F"

[[record]]
molecule = "CN(CCC=C1c2ccccc2CCc2ccccc21)C(CCN)C(=O)NCc1ccc(F)cc1 (stereo not drawn)"
category = "T"

[[record]]
molecule = "CN(CCC=C1c2ccccc2CCc2ccccc21)C(CCN)C(=O)NCc1ccccc1Cl (stereo not drawn)"
category = "T"

[[record]]
molecule = "CN(CCOCCN1c2ccccc2Sc2ccccc21)C(CCN)C(=O)NCc1ccc(F)cc1 (stereo not drawn)"
category = "T"

[[record]]
molecule = "CN(CCOCCn1c2ccccc2c2ccccc21)C(CCN)C(=O)NCc1ccccc1 (stereo not drawn)"
category = "F"


Task item: Does this molecule meet the criterion IC50 < 9 µM? CN(CCC=C1c2ccccc2-c2ccccc21)C(CCO)C(=O)NCc1ccc(Cl)cc1 (stereo not drawn)
Reply: F

Task item: Does this molecule meet the criterion IC50 < 9 µM? CN(CCC=C1c2ccccc2-c2ccccc21)C(CCO)C(=O)NCc1ccccc1 (stereo not drawn)
Reply: F

Task item: Does this molecule meet the criterion IC50 < 9 µM? Cc1ccc(CNC(=O)C(CCN)N(C)CCC=C2c3ccccc3CCc3ccccc32)cc1 (stereo not drawn)
Reply: T

Task item: Does this molecule meet the criterion IC50 < 9 µM? CN(CC/C=C/c1ccccc1-c1ccc(Cl)cc1Cl)C(CCN)C(=O)NCc1ccccc1 (stereo not drawn)
Reply: T

Task item: Does this molecule meet the criterion IC50 < 9 µM? CN(CCOCCN1c2ccccc2Sc2ccccc21)C(CCN)C(=O)NCc1ccccc1 (stereo not drawn)
Reply: F

Task item: Does this molecule meet the criterion IC50 < 9 µM? CN(CCOCCN1c2ccccc2Sc2ccccc21)C(CCN)C(=O)NCc1ccccc1Cl (stereo not drawn)
Reply: T

Task item: Does this molecule meet the criterion IC50 < 9 µM? CN(CCOCCN1c2ccccc2Sc2ccccc21)C(CCN)C(=O)NCc1ccc(Cl)cc1 (stereo not drawn)
Reply: T

====

Biological target: Sodium- and chloride-dependent GABA transporter 1 (Mus musculus)
Assay: Inhibition of mouse GAT1 transfected in HEK293 cells assessed as reduction in [3H]-GABA uptake preincubated for 25 mins followed by [3H]-GABA addition and measured after 4 mins by liquid scintillation counting analysis
Type: cell-based
Conditions: read-out: pIC50 (converted)
Label key: fulfilled means IC50 under 20 µM; not fulfilled means IC50 of 20 µM or more.

[[record]]
compound = "CC(O)CC(C(=O)NCc1ccc(F)cc1)N(C)CC/C=C/c1ccccc1-c1ccccc1 (racemic; form 1)"
assay_system = "Sodium- and chloride-dependent GABA transporter 1 (Mus musculus)"
category = "not fulfilled"


Task item: Does this compound meet the criterion IC50 < 20 µM? CN(CCOCCN1c2ccccc2Sc2ccccc21)C(CCO)C(=O)NCc1ccccc1Cl (centres undefined)
Reply: not fulfilled

Task item: Does this compound meet the criterion IC50 < 20 µM? CN(CCOCCn1c2ccccc2c2ccccc21)C(CCO)C(=O)NCc1ccc(F)cc1 (centres undefined)
Reply: not fulfilled

Task item: Does this compound meet the criterion IC50 < 20 µM? CC(=O)NCCC(C(=O)NCc1ccccc1Cl)N(C)CCOCCN1c2ccccc2Sc2ccccc21 (centres undefined)
Reply: fulfilled

Task item: Does this compound meet the criterion IC50 < 20 µM? CN(CCOCCN1c2ccccc2Sc2ccccc21)C(CCO)C(=O)NCc1ccccc1 (centres undefined)
Reply: not fulfilled

Task item: Does this compound meet the criterion IC50 < 20 µM? CN(CC/C=C/c1ccccc1-c1ccccc1)C(CO)C(=O)NCc1ccccc1Cl (centres undefined)
Reply: fulfilled

Task item: Does this compound meet the criterion IC50 < 20 µM? CC(O)CC(C(=O)NCc1ccccc1Cl)N(C)CC/C=C/c1ccccc1-c1ccccc1 (racemic; form 1)
Reply: not fulfilled

Task item: Does this compound meet the criterion IC50 < 20 µM? CN(CCOCCN1c2ccccc2Sc2ccccc21)C(CCN)C(=O)NCc1ccc(F)cc1 (centres undefined)
Reply: fulfilled

Task item: Does this compound meet the criterion IC50 < 20 µM? CN(CCOCCn1c2ccccc2c2ccccc21)C(CCO)C(=O)NCc1ccccc1Cl (centres undefined)
Reply: not fulfilled

====

Molecular target: Cholinesterase (Equus caballus)
Label key: TRUE means IC50 under 4000 nM; FALSE means IC50 of 4000 nM or more.

[[record]]
compound = "Cc1ccc(CNC(=O)C(CCO)N(C)CCOCCN2c3ccccc3Sc3ccccc32)cc1 (stereo not given)"
assay_system = "Cholinesterase (Equus caballus)"
category = "TRUE"

[[record]]
compound = "CN(CCC=C1c2ccccc2C=Cc2ccccc21)C(CO)C(=O)NCc1ccccc1Cl (stereo not given)"
assay_system = "Cholinesterase (Equus caballus)"
category = "FALSE"


Task item: Does this compound meet the criterion IC50 < 4000 nM? CN(CCOCCn1c2ccccc2c2ccccc21)C(CCN)C(=O)NCc1ccccc1Cl (stereo not given)
Reply: TRUE

Task item: Does this compound meet the criterion IC50 < 4000 nM? CC(O)CC(C(=O)NCc1ccccc1Cl)N(C)CC/C=C/c1ccccc1-c1ccccc1 (racemic; form 2)
Reply: TRUE

Task item: Does this compound meet the criterion IC50 < 4000 nM? CN(CCOCCN1c2ccccc2Sc2ccccc21)C(CCN)C(=O)NCc1ccccc1 (stereo not given)
Reply: TRUE

Origin of measurements: ChEMBL document CHEMBL5335794
